Tested on: HIV-1 (HTLVIIIB) in TK-deficient CEM T-cells
Assay: Inhibition of HIV-1 replication in TK-deficient CEM T-cells (p24 / RT activity)
Type: cell-based
Settings: Human immunodeficiency virus 1, T-cell, TK-deficient CEM T-cells; Table 5; read-out: CEM IC50 [RT]
pIC50: −log10 of the molar value.
Output rule met for pIC50 not less than 7; output rule not met otherwise.

{"molecule": "COC(=O)C(C)NP(=O)(OC[C@@H]1C=C[C@H](n2cc(C)c(=O)[nH]c2=O)O1)Oc1ccc(Br)cc1 (some centres unmarked)", "cat": "rule met"}
{"molecule": "Cc1cn([C@H]2C[C@H](N=[N+]=[N-])[C@@H](CO)O2)c(=O)[nH]c1=O", "cat": "rule not met"}
{"molecule": "COC(=O)C(C)NP(=O)(OC[C@H]1O[C@@H](n2cc(C)c(=O)[nH]c2=O)CC1N=[N+]=[N-])Oc1ccc(Br)cc1 (some centres unmarked)", "cat": "rule met"}
{"molecule": "Cc1cn([C@H]2CC[C@@H](CO)O2)c(=O)[nH]c1=O", "cat": "rule not met"}
{"molecule": "Cc1cn([C@H]2C=C[C@@H](CO)O2)c(=O)[nH]c1=O [d4T, 2′,3′-didehydro-2′,3′-dideoxythymidine]", "cat": "rule not met"}
